Target: androgen receptor (Homo sapiens, UniProt P10275, T878A)
Construct: LNCaP cells express endogenous AR; endogenous in cells; host or cells: LNCaP
Sequence (P10275 whole entry T878A): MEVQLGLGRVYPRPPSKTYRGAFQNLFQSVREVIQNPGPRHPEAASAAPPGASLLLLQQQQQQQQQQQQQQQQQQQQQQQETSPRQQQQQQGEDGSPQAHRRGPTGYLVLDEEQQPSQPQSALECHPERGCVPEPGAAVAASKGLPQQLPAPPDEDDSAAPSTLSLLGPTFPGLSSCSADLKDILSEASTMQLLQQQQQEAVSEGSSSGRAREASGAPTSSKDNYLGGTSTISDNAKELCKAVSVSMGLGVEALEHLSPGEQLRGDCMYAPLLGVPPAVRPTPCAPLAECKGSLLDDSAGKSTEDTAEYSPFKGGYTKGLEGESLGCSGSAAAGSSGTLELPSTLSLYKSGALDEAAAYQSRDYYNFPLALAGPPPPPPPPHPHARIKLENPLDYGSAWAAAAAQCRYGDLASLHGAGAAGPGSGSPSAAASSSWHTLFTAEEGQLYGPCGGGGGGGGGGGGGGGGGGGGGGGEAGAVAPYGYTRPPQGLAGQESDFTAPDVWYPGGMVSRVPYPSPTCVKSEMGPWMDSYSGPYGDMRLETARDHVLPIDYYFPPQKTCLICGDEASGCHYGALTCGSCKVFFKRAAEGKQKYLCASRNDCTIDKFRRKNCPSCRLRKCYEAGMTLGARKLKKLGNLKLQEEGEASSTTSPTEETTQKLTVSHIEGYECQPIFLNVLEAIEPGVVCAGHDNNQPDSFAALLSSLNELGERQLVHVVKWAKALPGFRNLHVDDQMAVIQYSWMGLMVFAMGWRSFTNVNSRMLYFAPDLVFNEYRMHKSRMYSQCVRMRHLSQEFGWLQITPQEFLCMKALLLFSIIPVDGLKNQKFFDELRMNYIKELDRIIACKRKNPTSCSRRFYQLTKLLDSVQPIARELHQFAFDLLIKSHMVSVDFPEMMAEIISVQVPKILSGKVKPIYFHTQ
Experiment: PSA(6.1 kb)-luciferase reporter assay in LNCaP cells induced with R1881
Assay type: cell-based
Details: LNCaP cells transfected with PSA-luciferase plasmid, R1881 1 nM, 48 h; data of FIG. 9; read-out: IC50 (μM + Standard Deviation)
Criterion: IC50 strictly under 10 µM. Met: met. Not met: not met.

Worked set:
>>> df
                               smilesrecord    group
0  CC(=O)OC[C@H](COc1ccc(C(C)(C)c2ccc(OC[C@@H](CCl)OC(C)=O)cc2)cc1)OC(C)=O      met
1  CC(=O)O[C@H](CCl)COc1ccc(C(C)(C)c2ccc(OC[C@H](O)CO)cc2)cc1  not met
2  CC(=O)OC[C@@H](O)COc1ccc(C(C)(C)c2ccc(OC[C@H](O)CCl)cc2)cc1  not met

Attention now shifts to the item below.
Determine whether this compound shows IC50 lower than 10 µM (ties excluded): COC[C@@H](COc1ccc(C(C)(C)c2ccc(OC[C@@H](CCl)OC(C)=O)cc2)cc1)OC(C)=O
met

// data source = patent US20160068466A1
